Assay: AUC (0 to infinity) in Sprague-Dawley rat at 5 mg/kg, po after 24 hrs by LC-MS/MS analysis
Assay type: ADME, organism-based
Design: route oral, time 24 hrs, dose 5 mg/kg
Conditions: in vivo
readout.kind: AUC(0-inf) (ng·h/mL)
Express your answer in ng·h/mL, writing the number without its unit.

Q. Report AUC(0-inf) for `COc1ccc2c3c([nH]c2c1)[C@@H]1N(CC3)C(=O)c2c(OC)cccc2N1C` please.
A. 155

* * *

Experiment: Tmax in Sprague-Dawley rat at 2.5 mg/kg, iv after 24 hrs by LC-MS/MS analysis
Type: ADME, organism-based
Conditions: in vivo
readout.kind: Tmax (min)
Express your answer in min, writing the number without its unit.

Q. Data request, read-out Tmax, for `COc1ccc2c3c([nH]c2c1)[C@@H]1N(CC3)C(=O)c2c(OC)cccc2N1C`
A. 4.98

* * *

Assay: AUC (0 to infinity) in Sprague-Dawley rat at 2.5 mg/kg, iv after 24 hrs by LC-MS/MS analysis
Assay type: ADME, organism-based
Parameters: route intravenous, time 24 hrs, dose 2.5 mg/kg
Details: in vivo
readout.kind: AUC(0-inf) (ng·h/mL)
Only the number, expressed in ng·h/mL, is required.

Q. Can you look up the measured AUC(0-inf) of `COc1ccc2c3c([nH]c2c1)[C@@H]1N(CC3)C(=O)c2c(OC)cccc2N1C` for me?
A. 520

* * *

Assay: MRT (0 to t) in Sprague-Dawley rat at 2.5 mg/kg, iv after 24 hrs by LC-MS/MS analysis
Type: ADME, organism-based
Details: in vivo
readout.kind: MRT last at 24 h (min)
I only need the number, in min, no unit after it.

Q. I'd like to know its MRT last at 24 h. The molecule in question is `COc1ccc2c3c([nH]c2c1)[C@@H]1N(CC3)C(=O)c2c(OC)cccc2N1C`
A. 8.4

* * *

Assay: MRT (0 to t) in Sprague-Dawley rat at 5 mg/kg, po after 24 hrs by LC-MS/MS analysis
Assay type: ADME, organism-based
Settings: in vivo
readout.kind: MRT last at 24 h (h)
I only need the number, in h, no unit after it.

Q. Return reported MRT last at 24 h; argument: `COc1ccc2c3c([nH]c2c1)[C@@H]1N(CC3)C(=O)c2c(OC)cccc2N1C`
A. 3.19

* * *

Target: Dual 3',5'-cyclic-AMP and -GMP phosphodiesterase 11A (Homo sapiens, UniProt Q9HCR9)
Sequence (Q9HCR9 whole entry, the tested form may be a part): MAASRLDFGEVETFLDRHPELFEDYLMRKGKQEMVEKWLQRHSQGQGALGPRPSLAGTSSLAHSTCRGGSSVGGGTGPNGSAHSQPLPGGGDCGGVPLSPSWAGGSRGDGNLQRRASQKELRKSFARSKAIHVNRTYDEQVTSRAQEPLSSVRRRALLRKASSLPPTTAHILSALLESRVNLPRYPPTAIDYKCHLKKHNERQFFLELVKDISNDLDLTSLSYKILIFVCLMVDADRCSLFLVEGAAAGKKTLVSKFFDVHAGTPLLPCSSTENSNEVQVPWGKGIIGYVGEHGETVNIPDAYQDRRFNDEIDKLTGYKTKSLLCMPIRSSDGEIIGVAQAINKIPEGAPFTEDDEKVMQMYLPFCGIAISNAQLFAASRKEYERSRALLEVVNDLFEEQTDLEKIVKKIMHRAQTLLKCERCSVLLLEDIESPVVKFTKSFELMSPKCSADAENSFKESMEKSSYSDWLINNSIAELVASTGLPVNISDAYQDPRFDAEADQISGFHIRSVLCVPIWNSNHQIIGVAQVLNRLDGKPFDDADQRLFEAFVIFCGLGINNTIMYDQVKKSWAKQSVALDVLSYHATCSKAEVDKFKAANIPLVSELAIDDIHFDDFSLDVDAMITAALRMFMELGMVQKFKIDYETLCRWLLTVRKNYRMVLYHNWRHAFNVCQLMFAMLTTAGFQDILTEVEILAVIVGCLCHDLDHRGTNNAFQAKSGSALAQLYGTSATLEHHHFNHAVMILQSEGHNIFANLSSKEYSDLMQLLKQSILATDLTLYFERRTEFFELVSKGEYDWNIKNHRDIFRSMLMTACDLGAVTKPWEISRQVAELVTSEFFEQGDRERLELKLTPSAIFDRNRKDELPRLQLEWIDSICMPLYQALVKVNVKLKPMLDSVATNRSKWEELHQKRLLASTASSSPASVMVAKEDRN
Test: Inhibition of PDE11A catalytic domain (unknown origin) using [3H]-cAMP or [3H]-[…] as substrate after 15 mins by liquid scintillation counting method
pIC50: −log10 of the molar value.
readout.kind: pIC50

Q. Which pIC50 value is on record for `COc1ccc2c3c([nH]c2c1)[C@@H]1N(CC3)C(=O)c2c(OC)cccc2N1C` ?
A. < 4.52

* * *

Molecular target: Dual specificity calcium/calmodulin-dependent 3',5'-cyclic nucleotide phosphodiesterase 1B (Homo sapiens, UniProt Q01064)
Sequence (Q01064 whole entry, the tested form may be a part): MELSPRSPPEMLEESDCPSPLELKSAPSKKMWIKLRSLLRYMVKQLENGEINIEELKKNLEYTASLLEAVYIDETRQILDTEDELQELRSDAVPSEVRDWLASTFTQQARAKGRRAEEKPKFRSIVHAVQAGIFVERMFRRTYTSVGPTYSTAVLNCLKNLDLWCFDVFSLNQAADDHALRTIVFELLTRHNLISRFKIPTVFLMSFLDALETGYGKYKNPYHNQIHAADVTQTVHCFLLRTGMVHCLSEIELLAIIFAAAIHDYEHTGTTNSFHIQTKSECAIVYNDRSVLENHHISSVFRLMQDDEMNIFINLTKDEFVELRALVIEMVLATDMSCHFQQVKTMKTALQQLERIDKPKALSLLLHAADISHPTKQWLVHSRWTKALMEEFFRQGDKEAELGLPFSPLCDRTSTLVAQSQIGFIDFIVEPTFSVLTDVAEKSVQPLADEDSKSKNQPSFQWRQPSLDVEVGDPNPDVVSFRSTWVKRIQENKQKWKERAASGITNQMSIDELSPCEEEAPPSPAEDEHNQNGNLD
Assay: Inhibition of human PDE1B (10-487 residues) expressed in Sf9 cells incubated for 15 mins using [3H]-cGMP as substrate by liquid scintillation counting method
pIC50: −log10 of the molar value.
readout.kind: pIC50

Q. State the recorded pIC50 for this entry: `COc1cccc2c1C(=O)N1CCc3c([nH]c4cccc(OC)c34)[C@H]1N2C`
A. < 4.70
